system: HT-29; experiment: Cytotoxicity against human HT-29 cells after 96 hrs by SRB assay; assay type: functional, cell-based; settings: HT-29, 96 h
Entries and their measured EC50 follow.
Reply numerically in µM, unit not repeated.

Recorded EC50, per entry:
> print(dat)
                                item.smiles  readout.number
1  CON(C)C(=O)[C@]12CCC(C)(C)C[C@H]1C1=CC[C@@H]3[C@@]4(C)CC[C@H](O)C(C)(C)[C@@H]4CC[C@@]3(C)[C@]1(C)CC2             5.6
2  CON(C)C(=O)[C@]12CCC(C)(C)C[C@H]1C1=CC[C@@H]3[C@@]4(C)CCC(=O)C(C)(C)[C@@H]4CC[C@@]3(C)[C@]1(C)CC2            15.6

Would you kindly share the measured EC50 for `CONC(=O)[C@]12CC[C@@H](C)[C@H](C)[C@H]1C1=CC[C@@H]3[C@@]4(C)CCC(=O)C(C)(C)[C@@H]4CC[C@@]3(C)[C@]1(C)CC2` ?
12.9

All figures here come from ChEMBL document CHEMBL3751798.
